# tgt: V-set and immunoglobulin domain-containing protein 8 (Homo sapiens)
# Sequence (P0DPA2 whole entry, the tested form may be a part): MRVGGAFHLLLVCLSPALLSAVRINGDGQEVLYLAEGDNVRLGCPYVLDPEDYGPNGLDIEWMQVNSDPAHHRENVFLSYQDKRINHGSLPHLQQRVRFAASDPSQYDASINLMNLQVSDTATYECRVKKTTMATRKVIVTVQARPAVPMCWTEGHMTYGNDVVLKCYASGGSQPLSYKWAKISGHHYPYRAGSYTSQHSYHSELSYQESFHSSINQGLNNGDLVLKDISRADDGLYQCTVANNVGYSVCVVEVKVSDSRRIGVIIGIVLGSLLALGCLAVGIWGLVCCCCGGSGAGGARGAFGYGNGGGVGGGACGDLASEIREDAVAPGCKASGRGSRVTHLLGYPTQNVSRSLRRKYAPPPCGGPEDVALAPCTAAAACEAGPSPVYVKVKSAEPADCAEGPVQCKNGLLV
# protocol_notes: Binding affinity to human VSIG8 assessed as dissociation constant by MST method
endpoint: Kd (µM)
Numbers only, in µM.

// returns reported Kd for input COc1cc(NC(=O)Nc2c(-c3ccncc3)[nH]c3ccc(Cl)cc23)cc(OC)c1 6.7

###

# protocol_notes: Inhibition of PD-L1 in human PBMC
# Assay type: cell-based
endpoint: EC50

// returns reported EC50 for input C[C@@H](O)[C@H](NC(=O)N[C@@H](CC(N)=O)c1nc([C@H](N)CO)no1)C(=O)O 66.1 nM

###

# protocol_notes: Antitumor immunity in PBMC (unknown origin) assessed as inhibition of VSIG8 binding to VISTA
# Assay type: functional, cell-based
endpoint: pEC50
One number for each entry, as −log10 of the molar value.

// returns reported pEC50 for input COc1cc(NC(=O)Nc2c(-c3ccncc3)[nH]c3ccc(Cl)cc23)cc(OC)c1 5.83
